Test: Toxicity liver stage against HepG2, at 10uM
Format: cell-based
Set-up: test concentration 10 uM, cell line HepG2-A16-CD81EGFP
Conditions: human, HepG2-A16-CD81EGFP cells; read-out: INHIBITION
Here, each record is paired with measured cytotoxicity at 10 µM data.
Numbers only; they are read as %.

See these solved cases before continuing.
Cc1nc(C)n(CC2CCCN2CC(=O)Nc2cccnc2)n1 (stereo unspecified) ... 2.04
CCc1ccccc1OCC(=O)N1CCOCC1c1ncon1 (stereo unspecified) ... -8.93
CN(Cc1ccc(Cl)s1)C(=O)CN1CC(n2cccn2)C1 ... -6.88

Query: Record request: cytotoxicity at 10 µM value, item CCc1nc(CN2CCCN(C(=O)CCSC)CC2)cs1
Response: -5.41

Query: Please do the same for COCCCN(Cc1ccncc1)c1cc(C)ncn1 as well.
Response: 3.35

Query: And then O=C([C@H]1CCCO1)N1CCCC2(COCCN(c3ccccc3)C2)C1 (stereo partly specified) , what is it?
Response: 13.9

Query: Would you mind doing Cc1noc(C)c1CNCc1c(C(C)C)nn(C)c1N1CCOCC1 as well?
Response: 4.8

Query: And CN(Cc1nnc(C2CCC2)o1)C(C(N)=O)c1cccc(F)c1 (stereo unspecified) ?
Response: 16.7

* * *

Assay: Toxicity liver stage against HepG2, at 10uM
Type: cell-based
Parameters: test concentration 10 uM, cell line HepG2-A16-CD81EGFP
Conditions: human, HepG2-A16-CD81EGFP cells; read-out: INHIBITION
This listing pairs compounds with measured cytotoxicity at 10 µM.
State the answer as a number, implicitly in %.

COC1CCN(S(=O)(=O)NCC2COc3ccccc3C2)CC1 (stereo not given) ... -1.08
COc1ccc(CN2CCC(c3nnc(-c4scnc4C)o3)CC2)cc1 ... -5.03
Cc1nnc(NCc2ccccc2F)c(C#N)c1C ... -9.71
COCCN1CC(Nc2nc(C3CCCC3)nc3c2cnn3C)CC1=O (stereo not given) ... -1.18
Cc1cc(C)cc(CN2CCCC2c2noc(C)n2)c1 (stereo not given) ... 9.86
c1cc2ccc(N3CCN(Cc4ccc5c(c4)OCO5)CC3)nc2[nH]1 ... -6.07
NC(=O)C1CN(C(=O)Nc2ccccc2SC(F)(F)F)CCO1 (stereo not given) ... -8.3
O=C(c1ccnnc1)N1C[C@@H]2C[C@@H](c3nc(C4CC4)cs3)O[C@@H]2C1 ... -124

Query: Quick one: cytotoxicity at 10 µM for COc1ccc(OC)c(-n2cnnc2CN)c1 ?
Response: -4.4

Query: Please answer likewise for Cc1ccc(C(=O)NCC2Cc3ccccc3O2)cc1S(C)(=O)=O (stereo not given)
Response: 1.05

Query: Try the compound CCc1oc(C(=O)N(C)Cc2ccncc2)cc1CN(CC)CC
Response: -1.81

* * *

Known cytotoxicity at 10 µM of a selection of molecules
Assay: Toxicity liver stage against HepG2, at 10uM
Format: cell-based
Parameters: test concentration 10 uM, cell line HepG2-A16-CD81EGFP
Details: human, HepG2-A16-CD81EGFP cells; read-out: INHIBITION

Cc1ccc(C)c2c(O)cc(CNCc3ccc(S(N)(=O)=O)cc3)nc12 ... -9.06%
O=C(CC1CCCC1)NCCS(=O)(=O)N1CCN(c2ccccc2)CC1 ... -4.07%
O=C(NCC1(CO)CC1)c1ccccc1Cl ... 5.47%

Query molecule follows.
Query: // cytotoxicity at 10 µM lookup, key: CCc1nc2n(n1)CC(NCc1ccnc(-c3ccccc3)n1)CC2 (centres undefined)
Response: -8.3%

* * *

Assay: Toxicity liver stage against HepG2, at 10uM
Assay type: cell-based
Parameters: test concentration 10 uM, cell line HepG2-A16-CD81EGFP
Settings: human, HepG2-A16-CD81EGFP cells; read-out: INHIBITION
ASSAY READOUT: cytotoxicity at 10 µM (%)
Field: numeric (%). Do not append units.

Cc1ncsc1C(=O)NCC1CCC2(CCNCC2)CO1 (stereo not drawn) ... 19.1
CS(=O)(=O)NCC1CCCN(Cc2ccc(F)c3cccnc23)C1 (stereo not drawn) ... -12.6
CC(NC1CCN(CCS(C)(=O)=O)CC1)c1ccc(Cl)cc1 (stereo not drawn) ... -6.51
O=c1cc(N2CCCCC2)cnn1CCCn1cccn1 ... -48.9
CC(C)OCCCN(Cc1ccncc1)Cc1cc(F)ccc1F ... -29.2

Query: Can you look up the measured cytotoxicity at 10 µM of O=C(NCCN1CCOCC1)Nc1cnc2cc(Cl)ccc2c1O for me?
Response: -24

Query: Same read-out for O[C@H]1CCN(Cc2ccoc2)[C@H]1Cc1cccnc1 ?
Response: 2.36

Query: Queued: Cc1cc(C)n(CC2CN(Cc3nnc(C)o3)CCO2)n1 (stereo not drawn)
Response: -7.95

Query: Okay, and CN1CCOC(CNCc2coc(-c3cccc(F)c3)n2)C1 (stereo not drawn) ?
Response: -29.3

Query: Next up: CC(=O)N1CC(C(=O)Nc2cccc(OC(F)F)c2)C1
Response: 1.22

Query: Then this molecule: CCN1CCC2(CCN(c3ncccn3)CC2)C1=O
Response: 1.26

Query: Subsequent entry: COCc1nnc(-c2cccc(C(=O)N(C(C)C)C3CCC3)c2)o1
Response: 1.51

Query: Input COc1cccc(CN2CCN(CC(C)C)C(=O)C2C)c1O (stereo not drawn)
Response: 2.02

Query: Next molecule up: CCN(CC)C(=O)c1ccc(Cl)c(NC(=O)c2cc(C(C)C)on2)c1
Response: 6.9

Query: Lookup COc1cccc(S(=O)(=O)CCN2CCCCC2)c1
Response: 2.37

Query: # repeat for CC(=O)NCC(=O)N1CCN(CCN(C)C)c2ncccc2C1
Response: -104

Query: Continue with Cn1ccc(C(=O)N2CCN(c3nccs3)CC2)cc1=O
Response: -18.1

Query: Now consider O=C(c1c(F)cccc1F)N1CCC[C@@H]1Cn1c(=O)oc2ccccc21 .
Response: 4.42

Query: Try this molecule too: CC(C)N1CCO[C@H]2CN(C(=O)c3ccsc3)C[C@H]21
Response: -72

Query: And the next one, Cc1nc(C2(O)CCCNCC2)sc1CCOc1ccc(Cl)cc1 (stereo not drawn) ?
Response: 12.7

Query: Same for Cc1cnn(C2CN(Cc3nc(-c4ccco4)no3)C2)c1
Response: -14.6

Query: Check CC1(C)[C@@H]2CC=C(CN3CCCn4nc(CNS(C)(=O)=O)cc4C3)[C@H]1C2 too.
Response: -46

Query: How about N#Cc1cc(NC(=O)c2ccccn2)ccc1N1CCC(O)CC1 ?
Response: 0.73

* * *

Test: Toxicity liver stage against HepG2, at 10uM
Type: cell-based
Parameters: test concentration 10 uM, cell line HepG2-A16-CD81EGFP
Conditions: human, HepG2-A16-CD81EGFP cells; read-out: INHIBITION
Reported cytotoxicity at 10 µM values for the following compounds.
State the answer as a number, implicitly in %.

Worked cases, answers included:
COc1cccc(COCC(=O)N2CCCC2Cn2cccn2)c1 (stereo not given) ... -0.153
Cn1ncc2c1CCCC2NCc1ccc(Cl)s1 (stereo not given) ... 7.6
COc1ccc(CN2CCC3(CC2)NC(=O)CC3c2ccncc2)cc1 (stereo not given) ... 5.97

Query: I am curious: what cytotoxicity at 10 µM value has been reported for NC(=O)C1CCN(C(=O)CCn2ccc3ccc(Br)cc32)CC1 ?
Response: -5.85

Query: And then Cc1ccc(NC(=O)c2nc3c(s2)CCCN3C(C)C)cn1 , what is it?
Response: 0.93

Query: Next entry: CC(NC(=O)NC1CCN(Cc2ccncc2)CC1)c1cccc(F)c1 (stereo not given)
Response: -12.5

Query: Next entry: COc1nn(C)c2c1CCCN(C(=O)c1ccsc1)C2
Response: -0.414

Query: Thanks! And CN(Cc1noc(-c2ccccc2)n1)C(=O)CSc1nnc(N)s1 ?
Response: 0.712

Query: Try the compound Cc1cc(C)n(CC(C)CNC(=O)N(C)Cc2ccco2)n1 (stereo not given)
Response: 4.47

Query: Also COCCCC1CCCCN1C(=O)c1ccc(SCCO)cc1 (stereo not given) ?
Response: -50

* * *

Entries annotated with measured cytotoxicity at 10 µM
Test: Toxicity liver stage against HepG2, at 10uM
Format: cell-based
Parameters: test concentration 10 uM, cell line HepG2-A16-CD81EGFP
Conditions: human, HepG2-A16-CD81EGFP cells; read-out: INHIBITION
Give the value, in units of %, as a plain number.

Solved cases below.
CCc1nc(CNCCn2cc(C)cn2)no1 ... -4.32
Cc1cc(S(=O)(=O)N2CCOCC2C#N)ccc1F (configuration not stated) ... 57.3
CCc1ccc2c(C3CN(CC4CCC4)C3)ncn2c1 ... 7.11
O=S(=O)(c1cccnc1)N1CCC(OCCCc2ccccc2)C1 (configuration not stated) ... 9.31
Cc1cnn(CCNCc2csc(-c3ccco3)n2)c1 ... -5.28

Query: Look up cytotoxicity at 10 µM for this compound: COc1ccc(CC(=O)N2CCCN(c3ccc(C#N)cc3)CC2)cc1
Response: -1.95

Query: What do you get for COc1ccc(C)cc1CN1CCC(c2cc3ncccc3cn2)CC1 ?
Response: 20.5

Just for reference, ChEMBL document CHEMBL4513216 is where these values come from.
